Experiment: Binding affinity to human Hum21 [5'-G3(T2AG3)3-3'] G-quadruplex DNA at 0.4 uM in 10 mM pH 7.4 Tris-Hcl buffer containing 0.1 mM EDTA and […] by fluorescence spectroscopy
readoutName: Kd (nM)
Your answer should be a plain number; it is taken to be in nM.

| itemSmiles | resultUnit | reported |
| --- | --- | --- |
| CN1CCN(CCCCn2c3ccc(-c4nc5cc(N6CCN(C)CC6)ccc5[nH]4)cc3c3cc(-c4nc5cc(N6CCN(C)CC6)ccc5[nH]4)ccc32)CC1 | nM | 100 |
| CN1CCN(CCCCn2c3ccc(-c4nc5cc(-c6nc7cc(N8CCN(C)CC8)ccc7[nH]6)ccc5[nH]4)cc3c3cc(-c4nc5cc(-c6nc7cc(N8CCN(C)CC8)ccc7[nH]6)ccc5[nH]4)ccc32)CC1 | nM | 150 |

Input line: Recorded Kd of CN1CCN(CCCCn2c3ccc(-c4nc5cc(N6CCN(CCO)CC6)ccc5[nH]4)cc3c3cc(-c4nc5cc(N6CCN(CCO)CC6)ccc5[nH]4)ccc32)CC1 , please.
Output line: 30

* * *

Assay: Binding affinity to human Hum21 [5'-G3(T2AG3)3-3'] G-quadruplex DNA at 0.4 uM in 10 mM pH 7.4 Tris-Hcl buffer containing 0.1 mM EDTA and 0.1 mM NaCl by fluorescence spectroscopy
List of pKd values.
Scale explanation: pKd corresponds to minus log10 of a concentration expressed in moles per litre.

Worked cases, answers included:
| itemSmiles | pKd |
| --- | --- |
| CN1CCN(CCCCn2c3ccc(-c4nc5cc(N6CCOCC6)ccc5[nH]4)cc3c3cc(-c4nc5cc(N6CCOCC6)ccc5[nH]4)ccc32)CC1 | 6.72 |
| CN1CCN(CCCCn2c3ccc(-c4nc5cc(N6CCN(C)CC6)ccc5[nH]4)cc3c3cc(-c4nc5cc(N6CCN(C)CC6)ccc5[nH]4)ccc32)CC1 | 6.82 |
| CN1CCN(CCCCn2c3ccc(-c4nc5cc(N6CCN(CCO)CC6)ccc5[nH]4)cc3c3cc(-c4nc5cc(N6CCN(CCO)CC6)ccc5[nH]4)ccc32)CC1 | 7.10 |

Please turn your attention to the following entry.
Input line: Recorded pKd of CN1CCN(CCCCn2c3ccc(-c4nc5cc(-c6nc7cc(N8CCN(C)CC8)ccc7[nH]6)ccc5[nH]4)cc3c3cc(-c4nc5cc(-c6nc7cc(N8CCN(C)CC8)ccc7[nH]6)ccc5[nH]4)ccc32)CC1 , please.
Output line: 6.74

* * *

Biological target: Telomerase reverse transcriptase (Homo sapiens)
Sequence (O14746 whole entry): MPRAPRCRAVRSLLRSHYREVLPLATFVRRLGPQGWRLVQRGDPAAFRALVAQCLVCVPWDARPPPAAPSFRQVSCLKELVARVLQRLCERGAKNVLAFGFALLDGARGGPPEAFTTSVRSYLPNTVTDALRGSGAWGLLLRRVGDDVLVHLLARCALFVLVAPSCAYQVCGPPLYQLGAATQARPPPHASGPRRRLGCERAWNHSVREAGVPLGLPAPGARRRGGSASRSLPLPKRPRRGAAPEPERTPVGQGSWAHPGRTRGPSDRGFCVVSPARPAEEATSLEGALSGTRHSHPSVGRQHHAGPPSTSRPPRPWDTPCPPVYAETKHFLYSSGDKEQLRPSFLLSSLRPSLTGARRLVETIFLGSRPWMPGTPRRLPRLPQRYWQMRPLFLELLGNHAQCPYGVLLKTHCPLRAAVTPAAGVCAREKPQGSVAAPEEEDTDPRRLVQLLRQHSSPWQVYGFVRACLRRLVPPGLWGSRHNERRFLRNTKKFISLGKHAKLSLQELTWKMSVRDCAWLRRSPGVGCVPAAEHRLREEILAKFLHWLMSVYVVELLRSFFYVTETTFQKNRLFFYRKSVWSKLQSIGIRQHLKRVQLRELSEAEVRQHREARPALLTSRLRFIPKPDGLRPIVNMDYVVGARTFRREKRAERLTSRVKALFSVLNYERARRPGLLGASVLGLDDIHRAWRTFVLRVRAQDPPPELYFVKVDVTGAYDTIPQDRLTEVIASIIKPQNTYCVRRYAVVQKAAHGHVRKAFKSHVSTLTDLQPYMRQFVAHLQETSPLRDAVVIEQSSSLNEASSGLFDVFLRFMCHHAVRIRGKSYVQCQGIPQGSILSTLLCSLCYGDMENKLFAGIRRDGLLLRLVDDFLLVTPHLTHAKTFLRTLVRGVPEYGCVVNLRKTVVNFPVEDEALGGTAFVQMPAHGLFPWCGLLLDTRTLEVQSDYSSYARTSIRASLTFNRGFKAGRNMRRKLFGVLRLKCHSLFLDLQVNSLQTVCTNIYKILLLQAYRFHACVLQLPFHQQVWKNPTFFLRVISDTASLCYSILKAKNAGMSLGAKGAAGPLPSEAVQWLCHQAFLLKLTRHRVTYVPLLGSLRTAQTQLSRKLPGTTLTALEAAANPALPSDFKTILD
Experiment: Inhibition of telomerase isolated form human A549 cells by TRAP-LIG assay
List of IC50 values.
Your answer should be a plain number; it is taken to be in nM.

Input line: Recorded IC50 of CN1CCN(CCCCn2c3ccc(-c4nc5cc(N6CCOCC6)ccc5[nH]4)cc3c3cc(-c4nc5cc(N6CCOCC6)ccc5[nH]4)ccc32)CC1 , please.
Output line: 1600

Input line: Recorded IC50 of CN1CCN(CCCCn2c3ccc(-c4nc5cc(-c6nc7cc(N8CCN(C)CC8)ccc7[nH]6)ccc5[nH]4)cc3c3cc(-c4nc5cc(-c6nc7cc(N8CCN(C)CC8)ccc7[nH]6)ccc5[nH]4)ccc32)CC1 , please.
Output line: 1800

Input line: Recorded IC50 of CN1CCN(CCCCn2c3ccc(-c4nc5cc(N6CCN(C)CC6)ccc5[nH]4)cc3c3cc(-c4nc5cc(N6CCN(C)CC6)ccc5[nH]4)ccc32)CC1 , please.
Output line: 900

Input line: Recorded IC50 of CN1CCN(CCCCn2c3ccc(-c4nc5cc(N6CCN(CCO)CC6)ccc5[nH]4)cc3c3cc(-c4nc5cc(N6CCN(CCO)CC6)ccc5[nH]4)ccc32)CC1 , please.
Output line: 600
